Sourced from patent US6623735B1

Tested on: F. hepatica cathepsin L2
Experiment: Enzyme kinetic studies, cathepsin L2
Type: biochemical, Fasciola hepatica
Conditions: 0.1M glycine pH 7.0, 37° C.
Description: The kinetic constants of F. hepatica cathepsins L1 and L2 enzymes were determined for 11 different substrates: Z-Phe-Arg-AMC, Bz-Phe-Val-Arg-AMC, Suc-Leu-Leu-Val-Tyr-AMC, H-Leu-Val-Tyr-AMC, Tos-Gly-Pro-Lys-AMC, Tos-Gly-Pro-Arg-AMC, Boc-Val-Pro-Arg-AMC, Z-Arg-Arg-AMC, Z-Arg-AMC, Suc-Ala-Phe-Lys-AMC and Boc-Val-Leu-Lys-AMC. One mg of fluorogenic substrate was dissolved in 100 μl of dimethyl formamide. […]
Starred links: 1 amine or outer side, 2 acyl side, 3 side chain; linkers in the order of their positions; H or OH if unused. Residues, ends and D or L forms follow the SMILES beside them. *: point of attachment. AMC = Cc1cc(=O)oc2cc(N*)ccc12; Suc = O=C(CCC(=O)[*:2])[*:1]; Boc = CC(C)(C)OC(=O)*
recorded.metric: log10 of Km (log10 of the value in µM)
Log10 applied to Km; unit prior to transform: µM.

The examples below pair each entry with its known result.
{"compound": "Cc1cc(=O)oc2cc(NC(=O)[C@H](Cc3ccc(O)cc3)NC(=O)[C@@H](NC(=O)[C@H](CC(C)C)NC(=O)[C@H](CC(C)C)NC(=O)CCC(=O)O)C(C)C)ccc12 [Suc-Leu-Leu-Val-Tyr-AMC] (Suc-LLVY-{AMC})", "endpoint.value": 1.37}
{"compound": "Cc1cc(=O)oc2cc(NC(=O)[C@H](Cc3ccc(O)cc3)NC(=O)[C@@H](NC(=O)[C@@H](N)CC(C)C)C(C)C)ccc12 [H-Leu-Val-Tyr-AMC] (H-Leu-Val-Tyr-{AMC})", "endpoint.value": 0.57}
{"compound": "Cc1cc(=O)oc2cc(NC(=O)[C@H](CCCN=C(N)N)NC(=O)[C@@H]3CCCN3C(=O)[C@@H](NC(=O)OC(C)(C)C)C(C)C)ccc12 [Boc-Val-Pro-Arg-AMC] (Boc-Val-Pro-Arg-{AMC})", "endpoint.value": 1.39}

For Cc1cc(=O)oc2cc(NC(=O)[C@H](CCCN=C(N)N)NC(=O)OCc3ccccc3)ccc12 [Z-Arg-AMC] on F. hepatica cathepsin L2, measured log10 of Km was 1.15

For Cc1cc(=O)oc2cc(NC(=O)[C@H](CCCCN)NC(=O)[C@H](Cc3ccccc3)NC(=O)[C@H](C)NC(=O)CCC(=O)O)ccc12 [Suc-Ala-Phe-Lys-AMC] (Suc-Ala-Phe-Lys-{AMC}) on F. hepatica cathepsin L2, measured log10 of Km was 1.61
